- Tested on: mouse ascites Ehrlich carcinoma
- procedure.details: Cytotoxicity, nonspecific esterase (FDA) assay, ascites Ehrlich carcinoma cells
- experimental.conditions: Mus musculus, Ehrlich, 24 h, read-out: Cytotoxicity (EC50), Ascites Ehrlich Carcinoma
pEC50: −log10 of the molar value.
attribute.measured: pEC50

1) COc1c(Cl)c(Cl)c(OC)c2c1C(=O)C1=C(S[C@@H]3O[C@H](CO)[C@H](O)[C@H](O)[C@H]3O1)C2=O [Compound 18b] : 5.96
2) O=C1C2=C(S[C@@H]3OC[C@H](O)[C@H](O)[C@H]3O2)C(=O)c2c(O)cccc21 [Compound 19d] : 5.96
3) O=C1C2=C(S[C@@H]3OC[C@@H](O)[C@H](O)[C@H]3O2)C(=O)c2c(O)cccc21 [Compound 19c] : 5.13
4) O=C1C2=C(S[C@@H]3O[C@H](CO)[C@H](O)[C@H](O)[C@H]3O2)C(=O)c2c(O)cccc21 [Compound 19b] : 6.15
5) O=C1C2=C(O[C@@H]3[C@@H](O)[C@@H](O)CO[C@H]3S2)C(=O)c2c(O)cccc21 [Compound 20d] : 5.92
6) O=C1C2=C(S[C@@H]3O[C@H](CO)[C@@H](O)[C@H](O)[C@H]3O2)C(=O)c2c(O)cccc21 [Compound 19a] : 6.22

====

Observed MIC values for S. aureus ATCC 21027 are listed in what follows.
attribute.measured: MIC (µM)

1. O=C1C2=C(S[C@@H]3OC[C@H](O)[C@H](O)[C@H]3O2)C(=O)c2c(O)cccc21 [Compound 19d] : 6.25
2. O=C1C2=C(O[C@@H]3[C@@H](O)[C@H](O)[C@@H](CO)O[C@H]3S2)C(=O)c2c(O)cccc21 [Compound 20a] : 25
3. O=C1C2=C(O[C@@H]3[C@@H](O)[C@@H](O)CO[C@H]3S2)C(=O)c2c(O)cccc21 [Compound 20d] : 6.25
4. O=C1C2=C(O[C@@H]3[C@@H](O)[C@H](O)CO[C@H]3S2)C(=O)c2c(O)cccc21 [Compound 20c] : 12.5
5. O=C1C2=C(O[C@@H]3[C@@H](O)[C@@H](O)[C@@H](CO)O[C@H]3S2)C(=O)c2c(O)cccc21 [Compound 20b] : 25

====

Recorded melting point values for a group of molecules are listed next.
attribute.measured: melting point

1. COc1ccc(OC)c2c1C(=O)C1=C(S[C@@H]3OC[C@H](O)[C@H](O)[C@H]3O1)C2=O [Compound 17d] : 317 to 320 °C
2. COc1c(Cl)c(Cl)c(OC)c2c1C(=O)C1=C(S[C@@H]3OC[C@H](O)[C@H](O)[C@H]3O1)C2=O [Compound 18d] : 286 to 289 °C
3. O=C1C2=C(O[C@@H]3[C@@H](O)[C@H](O)[C@@H](CO)O[C@H]3S2)C(=O)c2c(O)cccc21 [Compound 20a] : 274 to 276 °C
4. O=C1C2=C(O[C@@H]3[C@@H](O)[C@@H](O)[C@@H](CO)O[C@H]3S2)C(=O)c2c(O)cccc21 [Compound 20b] : 293 to 295 °C
5. O=C1C2=C(S[C@@H]3OC[C@@H](O)[C@H](O)[C@H]3O2)C(=O)c2c(O)cccc21 [Compound 19c] : 348 to 350 °C (dec.)
